# tested-on: IKZF2 (Homo sapiens, UniProt Q96SW2+Q9UKS7)
# Sequence (Q9UKS7 whole entry): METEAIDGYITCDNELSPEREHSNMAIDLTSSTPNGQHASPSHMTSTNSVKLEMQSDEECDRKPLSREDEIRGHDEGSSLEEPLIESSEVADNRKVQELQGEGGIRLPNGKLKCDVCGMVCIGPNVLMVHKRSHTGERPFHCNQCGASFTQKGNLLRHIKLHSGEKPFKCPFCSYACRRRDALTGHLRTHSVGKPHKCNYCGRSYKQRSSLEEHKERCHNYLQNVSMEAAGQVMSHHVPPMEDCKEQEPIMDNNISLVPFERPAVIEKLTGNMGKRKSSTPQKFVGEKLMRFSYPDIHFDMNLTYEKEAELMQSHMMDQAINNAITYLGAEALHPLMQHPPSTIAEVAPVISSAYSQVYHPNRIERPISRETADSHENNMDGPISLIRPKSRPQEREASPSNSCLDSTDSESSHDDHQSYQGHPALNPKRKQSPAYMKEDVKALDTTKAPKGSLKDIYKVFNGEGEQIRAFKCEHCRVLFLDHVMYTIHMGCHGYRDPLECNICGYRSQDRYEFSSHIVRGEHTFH
# Sequence (Q96SW2 whole entry): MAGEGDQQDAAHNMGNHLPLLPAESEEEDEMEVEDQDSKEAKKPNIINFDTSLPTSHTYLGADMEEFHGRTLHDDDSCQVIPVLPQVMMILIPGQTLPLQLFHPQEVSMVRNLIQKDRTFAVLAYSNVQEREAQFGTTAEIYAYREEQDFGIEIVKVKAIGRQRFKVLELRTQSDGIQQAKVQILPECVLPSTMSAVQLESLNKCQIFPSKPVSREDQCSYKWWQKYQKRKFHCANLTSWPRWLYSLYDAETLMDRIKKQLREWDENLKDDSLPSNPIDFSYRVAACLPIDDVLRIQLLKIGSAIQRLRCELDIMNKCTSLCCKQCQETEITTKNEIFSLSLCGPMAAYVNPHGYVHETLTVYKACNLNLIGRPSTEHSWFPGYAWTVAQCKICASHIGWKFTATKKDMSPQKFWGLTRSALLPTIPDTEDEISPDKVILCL
# Sequence (Q16531 whole entry partner): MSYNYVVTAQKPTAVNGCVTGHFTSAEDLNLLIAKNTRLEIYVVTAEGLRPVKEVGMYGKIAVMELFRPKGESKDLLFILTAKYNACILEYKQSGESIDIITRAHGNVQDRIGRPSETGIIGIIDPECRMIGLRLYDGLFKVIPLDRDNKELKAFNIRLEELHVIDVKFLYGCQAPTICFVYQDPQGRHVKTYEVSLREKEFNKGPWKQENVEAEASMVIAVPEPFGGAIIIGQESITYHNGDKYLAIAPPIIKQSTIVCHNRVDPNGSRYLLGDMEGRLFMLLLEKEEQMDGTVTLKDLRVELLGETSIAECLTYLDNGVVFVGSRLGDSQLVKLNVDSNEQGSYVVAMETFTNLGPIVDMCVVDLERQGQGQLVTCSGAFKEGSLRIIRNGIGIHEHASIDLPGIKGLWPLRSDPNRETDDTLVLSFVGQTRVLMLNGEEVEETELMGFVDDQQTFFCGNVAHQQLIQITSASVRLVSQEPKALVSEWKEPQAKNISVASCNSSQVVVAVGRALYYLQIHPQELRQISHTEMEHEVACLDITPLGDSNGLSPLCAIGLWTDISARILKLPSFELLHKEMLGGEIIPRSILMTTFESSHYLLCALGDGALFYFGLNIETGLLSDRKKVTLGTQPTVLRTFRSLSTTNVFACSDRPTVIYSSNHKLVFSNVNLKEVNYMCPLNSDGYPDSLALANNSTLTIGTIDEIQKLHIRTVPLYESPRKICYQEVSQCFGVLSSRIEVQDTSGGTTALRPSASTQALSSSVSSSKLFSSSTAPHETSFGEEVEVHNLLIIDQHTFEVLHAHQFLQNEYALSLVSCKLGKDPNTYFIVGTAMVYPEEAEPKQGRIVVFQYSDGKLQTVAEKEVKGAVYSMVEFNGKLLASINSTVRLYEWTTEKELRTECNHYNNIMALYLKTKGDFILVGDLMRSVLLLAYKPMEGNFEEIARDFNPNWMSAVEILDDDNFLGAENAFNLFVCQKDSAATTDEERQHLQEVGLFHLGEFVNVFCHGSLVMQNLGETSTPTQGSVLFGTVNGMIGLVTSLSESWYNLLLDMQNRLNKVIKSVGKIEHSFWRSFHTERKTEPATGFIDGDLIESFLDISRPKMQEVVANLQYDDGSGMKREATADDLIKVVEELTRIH
# protocol-description: Prolabel quantification of IKZF2 protein levels in 293GT cells
# Format: cell-based
# protocol-conditions: Prolabel assay, 293GT cells; read-out: IKZF2 EC50
Criterion: DC50 strictly less than 7 nM. Met: t. Not met: f.

Take a look at these entries with their results.
[
  {
    "compound": "CC(C)Oc1ccc(CN2CCC(c3ccc4c(c3)CN(C3CCC(=O)NC3=O)C4=O)CC2)cn1 (centres unmarked) [Compound I-285]",
    "assigned-category": "f"
  },
  {
    "compound": "O=C1CCC(N2Cc3cc(C4CCN(Cc5cccc6c5CCCC6)CC4)ccc3C2=O)C(=O)N1 (centres unmarked) [Compound I-164]",
    "assigned-category": "f"
  },
  {
    "compound": "O=C1CCC(N2Cc3cc(C4CCN(Cc5cccc(C(=O)O)c5)CC4)ccc3C2=O)C(=O)N1 (centres unmarked) [Compound I-74]",
    "assigned-category": "f"
  },
  {
    "compound": "N#Cc1ccc(CN2CCC(c3ccc4c(c3)CN(C3CCC(=O)NC3=O)C4=O)CC2)cc1 (centres unmarked) [Compound I-31]",
    "assigned-category": "t"
  },
  {
    "compound": "O=C1CCC(N2Cc3cc(C4CCN(Cc5ccon5)CC4)ccc3C2=O)C(=O)N1 (centres unmarked) [Compound I-246]",
    "assigned-category": "f"
  },
  {
    "compound": "Cc1cc(CN2CCC(c3ccc4c(c3)CN(C3CCC(=O)NC3=O)C4=O)CC2)on1 (centres unmarked) [Compound I-245]",
    "assigned-category": "f"
  },
  {
    "compound": "O=C1CCC(N2Cc3cc(C4CCN(Cc5ccc6c(c5)NCCS6)CC4)ccc3C2=O)C(=O)N1 (centres unmarked) [Compound I-141]",
    "assigned-category": "f"
  },
  {
    "compound": "O=C1CCC(N2Cc3cc(C4CCN(Cc5ccc6c(c5)OCCCO6)CC4)ccc3C2=O)C(=O)N1 (centres unmarked) [Compound I-88]",
    "assigned-category": "t"
  }
]

Consider O=C1CCC(N2Cc3cc(C4CCN(Cc5cccc6ccccc56)CC4)ccc3C2=O)C(=O)N1 (centres unmarked) [Compound I-49] . Does its DC50 lie strictly below 7 nM?
t

---

# tested-on: IKZF1 (Homo sapiens, UniProt Q13422+Q96SW2)
# Sequence (Q13422 whole entry): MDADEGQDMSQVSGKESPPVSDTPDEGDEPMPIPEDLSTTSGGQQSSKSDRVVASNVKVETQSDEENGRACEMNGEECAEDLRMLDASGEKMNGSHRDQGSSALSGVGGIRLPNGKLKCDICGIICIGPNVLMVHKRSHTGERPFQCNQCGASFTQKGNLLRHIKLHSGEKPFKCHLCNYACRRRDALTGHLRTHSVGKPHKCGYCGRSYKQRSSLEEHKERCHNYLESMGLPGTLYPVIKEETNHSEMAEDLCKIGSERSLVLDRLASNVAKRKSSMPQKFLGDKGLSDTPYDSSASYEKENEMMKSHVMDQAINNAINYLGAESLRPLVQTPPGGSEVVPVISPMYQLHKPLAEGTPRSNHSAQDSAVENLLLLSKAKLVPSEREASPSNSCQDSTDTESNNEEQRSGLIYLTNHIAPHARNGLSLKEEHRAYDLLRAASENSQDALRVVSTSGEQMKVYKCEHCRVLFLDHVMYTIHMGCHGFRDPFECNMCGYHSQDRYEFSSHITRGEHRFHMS
# Sequence (Q96SW2 whole entry): as the sequence (Q96SW2 whole entry) above
# Sequence (Q16531 whole entry partner): as the sequence (Q16531 whole entry partner) above
# protocol-description: Prolabel quantification of IKZF1 protein levels in 293GT cells
# Type: cell-based
# protocol-conditions: Prolabel assay, read-out: IKZF1 EC50
value-type: DC50

Some compounds with recorded DC50:
[
  {
    "compound": "Cc1onc(-c2ccccc2)c1CN1CCC(c2ccc3c(c2)CN(C2CCC(=O)NC2=O)C3=O)CC1 (stereo not shown)",
    "DC50": "> 30 µM"
  },
  {
    "compound": "NC(=O)c1cccc(CN2CCC(c3ccc4c(c3)CN(C3CCC(=O)NC3=O)C4=O)CC2)c1 (stereo not shown)",
    "DC50": "> 30 µM"
  },
  {
    "compound": "CC(C)(C)c1cccc(CN2CCC(c3ccc4c(c3)CN(C3CCC(=O)NC3=O)C4=O)CC2)c1 (stereo not shown)",
    "DC50": "0.14 µM"
  }
]

Complete the entry with DC50 for Cc1cc2nc(CN3CCC(c4ccc5c(c4)CN(C4CCC(=O)NC4=O)C5=O)CC3)cc(O)n2n1 (stereo not shown)
> 30 µM

---

The entries below are paired with their reported DC50.
# tested-on: IKZF1 (Homo sapiens, UniProt Q13422+Q96SW2)
# protocol-description: Prolabel quantification of IKZF1 protein levels in 293GT cells
# Format: cell-based
# protocol-conditions: Prolabel assay, read-out: IKZF1 EC50
# Protocol: The Prolabel system from DiscoverX was used to develop high-throughput and quantitative assays to measure changes in IKZF1, IKZF2 and GSPT1 protein levels in response to compounds. […] The complementary fragment of beta-galactosidase (from DiscoverX), is added to the prolabel tag to form an active beta galactosidase enzyme whose activity can be precisely measured. In this way, the levels of a fusion protein with the prolabel tag can be quantified in cell lysates. […]

Some compounds with recorded DC50:
[
  {
    "compound": "O=C1CCC(N2Cc3cc(C4=CCN(Cc5ccccc5)C4)ccc3C2=O)C(=O)N1 (centres unmarked) [Compound I-191]",
    "result-value": "> 30 µM"
  },
  {
    "compound": "O=C1CCC(N2Cc3cc(C4CCN(Cc5nc(-c6ccccc6)c[nH]5)CC4)ccc3C2=O)C(=O)N1 (centres unmarked) [Compound I-154]",
    "result-value": "0.043 µM"
  },
  {
    "compound": "O=C1CCC(N2Cc3cc([C@@H]4CCCNCC4)ccc3C2=O)C(=O)N1 (single isomer, unassigned) [Compound I-166]",
    "result-value": "> 50 µM"
  }
]

Quote DC50 with test system IKZF1 (Homo sapiens, UniProt Q13422+Q96SW2) for O=C1CCC(N2Cc3cc(C4CCN(Cc5ccc(OCc6ccccn6)cc5)CC4)ccc3C2=O)C(=O)N1 (centres unmarked) [Compound I-255]
> 30 µM

Quote DC50 with test system IKZF1 (Homo sapiens, UniProt Q13422+Q96SW2) for O=C1CCC(N2Cc3cc(C4CCN(Cc5cnc6cnccn56)CC4)ccc3C2=O)C(=O)N1 (centres unmarked) [Compound I-126]
> 30 µM

Quote DC50 with test system IKZF1 (Homo sapiens, UniProt Q13422+Q96SW2) for O=C1CCC(N2Cc3cc(C4CCN(Cc5c[nH]nc5-c5cccnc5)CC4)ccc3C2=O)C(=O)N1 (centres unmarked) [Compound I-151]
> 30 µM

Quote DC50 with test system IKZF1 (Homo sapiens, UniProt Q13422+Q96SW2) for O=C1CCC(N2Cc3cc(C4CCN(C(c5ccccc5)C(F)(F)F)CC4)ccc3C2=O)C(=O)N1 (centres unmarked) [Compound I-224]
> 50 µM

Quote DC50 with test system IKZF1 (Homo sapiens, UniProt Q13422+Q96SW2) for O=C1CCC(N2Cc3cc(C4CCN(Cc5cccn6nccc56)CC4)ccc3C2=O)C(=O)N1 (centres unmarked) [Compound I-128]
> 30 µM

Quote DC50 with test system IKZF1 (Homo sapiens, UniProt Q13422+Q96SW2) for O=C1CCC(N2Cc3cc(C4CCN(Cc5ccc(F)c(F)c5)CC4)ccc3C2=O)C(=O)N1 (centres unmarked) [Compound I-64]
> 30 µM

Quote DC50 with test system IKZF1 (Homo sapiens, UniProt Q13422+Q96SW2) for O=C1CCC(N2Cc3cc(C4CCN(Cc5ccc(CO)cc5)CC4)ccc3C2=O)C(=O)N1 (centres unmarked) [Compound I-32]
> 30 µM

Quote DC50 with test system IKZF1 (Homo sapiens, UniProt Q13422+Q96SW2) for O=C1CCC(N2Cc3cc(C4CCN(Cc5cccc(Cl)c5)CC4)ccc3C2=O)C(=O)N1 (centres unmarked) [Compound I-16]
> 30 µM

---

The entries below are paired with their reported log10 DC50.
# tested-on: IKZF2 (Homo sapiens, UniProt Q96SW2+Q9UKS7)
# protocol-description: Prolabel quantification of IKZF2 protein levels in 293GT cells
# Type: cell-based
# protocol-conditions: Prolabel assay, 293GT cells; read-out: IKZF2 EC50
Hey, these are logged values: log10 of DC50, nM being the unit before logging.

[
  {
    "molecule": "CCN1CCC(c2ccc3c(c2)CN(C2CCC(=O)NC2=O)C3=O)CC1 (stereo not drawn) [Compound I-1]",
    "tested-on": "IKZF2 (Homo sapiens, UniProt Q96SW2+Q9UKS7)",
    "result-value": 1.83
  },
  {
    "molecule": "O=C1CCC(N2Cc3cc(C4CCN(C(CF)c5ccccc5)CC4)ccc3C2=O)C(=O)N1 (stereo not drawn) [Compound I-212]",
    "tested-on": "IKZF2 (Homo sapiens, UniProt Q96SW2+Q9UKS7)",
    "result-value": 1.69
  },
  {
    "molecule": "CC(C)n1nccc1CN1CCC(c2ccc3c(c2)CN(C2CCC(=O)NC2=O)C3=O)CC1 (stereo not drawn) [Compound I-289]",
    "tested-on": "IKZF2 (Homo sapiens, UniProt Q96SW2+Q9UKS7)",
    "result-value": 1.88
  },
  {
    "molecule": "O=C1CCC(N2Cc3cc(C4CCN(CC5CCOCC5)CC4)ccc3C2=O)C(=O)N1 (stereo not drawn) [Compound I-13]",
    "tested-on": "IKZF2 (Homo sapiens, UniProt Q96SW2+Q9UKS7)",
    "result-value": 1.46
  },
  {
    "molecule": "CN1CCN(Cc2cc(CN3CCC(c4ccc5c(c4)CN(C4CCC(=O)NC4=O)C5=O)CC3)ccc2O)CC1 (stereo not drawn) [Compound I-205]",
    "tested-on": "IKZF2 (Homo sapiens, UniProt Q96SW2+Q9UKS7)",
    "result-value": 1.70
  }
]

Complete the entry with log10 DC50 for Nc1ccc(CN2CCC(c3ccc4c(c3)CN(C3CCC(=O)NC3=O)C4=O)CC2)cn1 (stereo not drawn) [Compound I-123]
1.84

Complete the entry with log10 DC50 for O=C1CCC(N2Cc3cc(C4CCN(Cc5c(F)cccc5F)CC4)ccc3C2=O)C(=O)N1 (stereo not drawn) [Compound I-24]
1.59

Complete the entry with log10 DC50 for O=C1CCC(N2Cc3cc(C4CCN(Cc5ccc6c(c5)OCCO6)CC4)ccc3C2=O)C(=O)N1 (stereo not drawn) [Compound I-83]
1.72

Complete the entry with log10 DC50 for O=C1CCC(N2Cc3cc(C4CCN(Cc5ccc(C(F)F)cc5)CC4)ccc3C2=O)C(=O)N1 (stereo not drawn) [Compound I-70]
1.08

Complete the entry with log10 DC50 for O=C1CCC(N2Cc3cc(C4CCN(Cc5cc(-c6ccccn6)n[nH]5)CC4)ccc3C2=O)C(=O)N1 (stereo not drawn) [Compound I-201]
1.52
